All figures here come from ChEMBL document CHEMBL3102830.

A collection of compounds and their measured pKi
# SYSTEM: Sigma non-opioid intracellular receptor 1 (Homo sapiens, UniProt Q99720)
# Sequence (Q99720 whole entry): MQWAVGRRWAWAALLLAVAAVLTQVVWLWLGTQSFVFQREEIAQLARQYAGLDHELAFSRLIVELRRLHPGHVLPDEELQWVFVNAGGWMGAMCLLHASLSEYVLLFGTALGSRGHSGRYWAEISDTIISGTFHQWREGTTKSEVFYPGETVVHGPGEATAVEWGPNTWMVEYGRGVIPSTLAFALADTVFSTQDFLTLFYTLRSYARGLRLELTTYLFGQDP
# ASSAY_OVERVIEW: Displacement of [3H]-(+)-pentazocine from sigma-1 receptor in human RPMI8226 cells
Scale explanation: pKi corresponds to minus log10 of a concentration expressed in moles per litre.

>>> print(df.to_string())
                                 smiles_str  reported_endpoint  numeric_value
0  OCC[C@H]1CN(CC2CCCCC2)CCN1Cc1ccc(-c2ccccc2)cc1                pKi           7.47

Specify reported pKi for the compound shown: "OCC[C@@H]1CN(CC2CCCCC2)CCN1Cc1ccc(-c2ccccc2)cc1"
7.54
